Test target: T1, huNotch2-EGF6-10 (human, UniProt Q04721 219-418)
T1 construct: also called human Notch2 EGF6-10
T1 sequence: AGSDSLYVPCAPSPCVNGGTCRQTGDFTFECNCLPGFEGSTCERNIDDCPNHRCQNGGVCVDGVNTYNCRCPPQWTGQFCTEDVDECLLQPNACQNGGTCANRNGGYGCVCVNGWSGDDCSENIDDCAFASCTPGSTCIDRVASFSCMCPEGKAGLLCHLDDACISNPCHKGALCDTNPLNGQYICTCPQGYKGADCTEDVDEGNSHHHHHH
Test details: SPR BIAcore, separate experiment, substantially as for Table 4
Result type: koff (s⁻¹)

INSERT INTO results (binder, reported_value) VALUES
  ('hu.3107.L7H12 (antibody, V domains shown, also called hu.Notch-3107.L7H12) VH: EVQLVQSGAEVKKPGASVKVSCKASGYTFSNYVIHWVRQAPGQGPEWTGYIIPGSGGTKFNEKFKGRATSTVDTSSTTAYMELSRLRSDDTVVYYCARDGAGSFTYWGQGTLVTVSS VL: DIVMTQSPDSLAVSLGERATINCRSSQSLVHSDGNTYLHWYQQKPGQPPKLLIYRISNRFSGVPDRFSGSGSGTDFTLTISSLQAEDVAVYYCLQSTHFPDTFGGGTKVEIK', 0.00367),
  ('hu.3107.L6H14 (antibody, V domains shown, also called hu.Notch-3107.L6H14) VH: EVQLVQSGAEVKKPGESLKISCKGSGYTFSNYVIHWVRQMPGKGPEWTGYIIPGSGGTKFNEKFKGQATISVDKSSTTAYLQWSSLKASDTAMYYCARDGAGSFTYWGQGTLVTVSS VL: DVVMTQSPDSLAVSLGERATINCRSSQSLVHSDGNTYLHWFQQKPGQPPKLLIYRISNRFSGVPDRFSGSGSGTDFTLTISSLQAEDVAVYYCLQSTHFPDTFGGGTKVEIK', 0.00354),
  ('rat.3107 (rat/human chimeric anti-Notch2 antibody 3107) (antibody, V domains shown) VH: QVQLQQSGAELAKSGSSVKISCKASGYTFSNYVIHWIKQTTGQAPEWTGYIIPGSGGTKFNEKFKGKATLTVDKSSTTAYMQLSSLTPVDTAVYYCARDGAGSFTYWGQGTLVTVSS VL: DVLMTQTPVSLPVSLGGQVSISCRSSQSLVHSDGNTYLHWFLQKPGQSPQLLIYRISNRFSGVPDRFSGSGSGTDFTLKISRVEPEDLGVYYCLQSTHFPDTFGGGTKVEIK', 0.00312),
  ('hu.3107.L6H12 (antibody, V domains shown, also called hu.Notch-3107.L6H12) VH: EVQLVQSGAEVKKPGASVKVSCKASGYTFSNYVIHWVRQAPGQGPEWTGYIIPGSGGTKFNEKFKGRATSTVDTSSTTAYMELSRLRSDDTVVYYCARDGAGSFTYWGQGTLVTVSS VL: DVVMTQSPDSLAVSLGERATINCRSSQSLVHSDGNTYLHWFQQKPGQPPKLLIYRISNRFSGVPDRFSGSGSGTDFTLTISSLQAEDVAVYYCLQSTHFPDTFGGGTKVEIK', 0.00404);
